Experiment: CellTiter-Glo luminescent readout of SW480 viability loss, NPC library primary (AID 1117343)
Conditions: CellTiter-Glo luminescence; at 20 µM (top of the series) unless noted
Calls of active or inactive are those of the source.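 Rule for the calls: active = compounds that lower viability of the colon cancer cells in the luminescence readout, with no numeric limit stated; inactive = the rest.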
In this section we review reported viability decrease (inhibition) values for a set of compounds.
measured.parameter: viability decrease (inhibition)

{"compound": "CCN(CC)C(=O)c1ccc(O)c(OC)c1", "measured.parameter": "viability decrease (inhibition)", "reported.value": "107% (active)"}
{"compound": "O=C1OC(CN2CCOCC2)CN1/N=C/c1ccc([N+](=O)[O-])o1 (configuration not stated)", "measured.parameter": "viability decrease (inhibition)", "reported.value": "22% (inactive)"}
{"compound": "CC(C(=O)O)c1ccc(C(=O)c2ccccc2)s1 (configuration not stated)", "measured.parameter": "viability decrease (inhibition)", "reported.value": "37.4% (inactive)"}
{"compound": "O=C(CS(=O)Cc1ccco1)NC/C=C\\COc1cc(CN2CCCCC2)ccn1 (configuration not stated)", "measured.parameter": "viability decrease (inhibition)", "reported.value": "-8.8% (inactive)"}
{"compound": "NCCNCCNCCNCCN", "measured.parameter": "viability decrease (inhibition)", "reported.value": "17.8% (inactive)"}
{"compound": "CCn1c(=O)c2c(nc(C=Cc3ccc(OC)c(OC)c3)n2C)n(CC)c1=O", "measured.parameter": "viability decrease (inhibition)", "reported.value": "4.6% (inactive)"}
{"compound": "CCOC(=O)Nc1ccc(NCc2ccc(F)cc2)nc1N", "measured.parameter": "viability decrease (inhibition)", "reported.value": "1.7% (inactive)"}
{"compound": "OC1C(O)C(O)C(O)C(O)C1O (configuration not stated)", "measured.parameter": "viability decrease (inhibition)", "reported.value": "4.8% (inactive)"}
{"compound": "C#C[C@]1(OC(C)=O)CC[C@H]2[C@@H]3CCC4=C[C@@H](OC(C)=O)CC[C@@H]4[C@H]3CC[C@@]21C", "measured.parameter": "viability decrease (inhibition)", "reported.value": "80.6% (active)"}
{"compound": "CC(O)Cn1cnc2c1c(=O)n(C)c(=O)n2C (configuration not stated)", "measured.parameter": "viability decrease (inhibition)", "reported.value": "26.1% (inactive)"}
{"compound": "CN(C)CCCO[C@@H]1[C@H]2OC(C)(C)O[C@H]2O[C@@H]1C(O)CO (some centres not stated)", "measured.parameter": "viability decrease (inhibition)", "reported.value": "13.2% (inactive)"}
{"compound": "OC(CCN1CCCCC1)(c1ccccc1)C1CC2C=CC1C2 (configuration not stated)", "measured.parameter": "viability decrease (inhibition)", "reported.value": "39.6% (inactive)"}
